B1: C20orf112 (parent)
chain: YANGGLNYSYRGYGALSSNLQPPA

Variants of: B1
TEST NAME: protein stability index of a GFP-peptide fusion (GPS, HEK-293T) (PSI 1-6); higher = more stable;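 also: lentivirally expressed fusions sorted by FACS into six bins by GFP to DsRed ratio, PSI derived from sequencing read proportions per bin multiplied by bin number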
PROTOCOL CONDITIONS: c terminus: a fixed tail appended
Answer Not satisfied if protein stability index is under 2, and Satisfied if it is 2 or more.

These recorded examples may help you get a feel for the data.
>  <MUTATION SPEC>
S18F

>  <DISCRETE LABEL>
Not satisfied

$$$$
>  <MUTATION SPEC>
Y10N

>  <DISCRETE LABEL>
Not satisfied

$$$$
>  <MUTATION SPEC>
A15C

>  <DISCRETE LABEL>
Satisfied

$$$$
>  <MUTATION SPEC>
Y10E

>  <DISCRETE LABEL>
Not satisfied

$$$$
>  <MUTATION SPEC>
P23S

>  <DISCRETE LABEL>
Not satisfied

$$$$
>  <MUTATION SPEC>
N19P

>  <DISCRETE LABEL>
Satisfied

$$$$

Problem: # check: protein stability index of N3C is greater than or equal to 2
Result: Not satisfied

Problem: # check: protein stability index of R11D is greater than or equal to 2
Result: Not satisfied

Problem: # check: protein stability index of G5L is greater than or equal to 2
Result: Not satisfied

Problem: # check: protein stability index of N3W is greater than or equal to 2
Result: Not satisfied

Problem: # check: protein stability index of A15G is greater than or equal to 2
Result: Not satisfied

Problem: # check: protein stability index of G5H is greater than or equal to 2
Result: Satisfied

Problem: # check: protein stability index of P22A is greater than or equal to 2
Result: Not satisfied

Problem: # check: protein stability index of S9M is greater than or equal to 2
Result: Satisfied
